species: Rattus norvegicus; assay: Recovery of ADP-induced platelet aggregation 20 minutes post dose. mean of four determinations and spread of results; assay type: functional
Decide using Recovery of ADP-induced platelet aggregation: a value greater than or equal to 30% is fulfilled, a smaller one is not fulfilled.

QUERY: Identify whether the reported Recovery of ADP-induced platelet aggregation of the following molecule is 30% or greater: `COCCNc1nc(SCCC(F)(F)F)nc2c1ncn2[C@@H]1O[C@H](COP(=O)(O)OP(=O)(O)C(Cl)(Cl)P(=O)(O)O)[C@@H](O)[C@H]1O`
RESULT: fulfilled

QUERY: In plain terms: is recorded Recovery of ADP-induced platelet aggregation at least 30% for `CCCSc1nc(N)c2ncn([C@@H]3O[C@H](COP(=O)(O)OP(=O)(O)C(Cl)(Cl)P(=O)(O)O)[C@@H](O)[C@H]3O)c2n1` ?
RESULT: fulfilled

QUERY: Check this molecule for Recovery of ADP-induced platelet aggregation at or above 30%: `CCCSc1nc(NCCOC)c2ncn([C@@H]3O[C@H](COP(=O)(O)OP(=O)(O)C(Cl)(Cl)P(=O)(O)O)[C@@H](O)[C@H]3O)c2n1`
RESULT: fulfilled

QUERY: Tell me whether Recovery of ADP-induced platelet aggregation is at least 30% here: `O=P(O)(OC[C@H]1O[C@@H](n2cnc3c(NCC(F)(F)F)nc(SCCC(F)(F)F)nc32)[C@H](O)[C@@H]1O)OP(=O)(O)C(Cl)(Cl)P(=O)(O)O`
RESULT: not fulfilled

QUERY: Does the molecule `CCCSc1nc(NCC(F)(F)F)c2ncn([C@@H]3O[C@H](COP(=O)(O)OP(=O)(O)C(Cl)(Cl)P(=O)(O)O)[C@@H](O)[C@H]3O)c2n1` have recorded Recovery of ADP-induced platelet aggregation that is 30% or more?
RESULT: not fulfilled

QUERY: Please check the record `CSCCNc1nc(SCCC(F)(F)F)nc2c1ncn2[C@@H]1O[C@H](COP(=O)(O)OP(=O)(O)C(Cl)(Cl)P(=O)(O)O)[C@@H](O)[C@H]1O` and state if its Recovery of ADP-induced platelet aggregation is at or above 30%.
RESULT: fulfilled

QUERY: Does Recovery of ADP-induced platelet aggregation meet or surpass 30% for `CCCSc1nc(NCCSC)c2ncn([C@@H]3O[C@H](COP(=O)(O)OP(=O)(O)C(Cl)(Cl)P(=O)(O)O)[C@@H](O)[C@H]3O)c2n1` ?
RESULT: fulfilled

These data points were gathered from ChEMBL document CHEMBL1132412.
